Target: Human immunodeficiency virus type 1 integrase (Human immunodeficiency virus 1, UniProt Q7ZJM1)
Sequence (Q7ZJM1 whole entry): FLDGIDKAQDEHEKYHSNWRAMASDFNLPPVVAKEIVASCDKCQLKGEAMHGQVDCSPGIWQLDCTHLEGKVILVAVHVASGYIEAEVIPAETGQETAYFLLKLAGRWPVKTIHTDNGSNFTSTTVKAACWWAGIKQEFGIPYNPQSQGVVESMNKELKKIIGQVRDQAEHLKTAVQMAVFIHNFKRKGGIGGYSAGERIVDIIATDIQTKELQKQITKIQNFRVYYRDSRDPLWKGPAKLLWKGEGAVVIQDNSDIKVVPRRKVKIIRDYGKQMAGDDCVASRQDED
Assay: Inhibitory concentration of compound against 3'-processing of HIV-1 integrase in experiment 1
pIC50: −log10 of the molar value.
Would you mind labelling by pIC50? At or over 4 is condition met, under is condition not met.

Here's what some known entries look like.
Molecule	Category label
O=C(c1ccc(O)cc1O)C1C(c2ccc(O)cc2)OC(c2ccc(O)cc2)C1C(=O)c1ccc(O)cc1O (configuration not stated)	condition not met
CCOC(=O)c1cnc(NCCCNc2ncc(C(=O)OCC)c(=O)[nH]2)[nH]c1=O	condition met
CC(=O)C1=C(NNC(=O)c2ccccn2)[C@@]2(C)C(=CC1=O)Oc1c(C(C)=O)c(O)c(C)c(O)c12	condition met

Threshold query (pIC50 >= 4) on `CCCCCc1cc(O)cc2c1Oc1cc(O)cc(C(=O)CCCC)c1C(=O)O2`
condition met

Threshold query (pIC50 >= 4) on O=C1C(O)=C(c2ccccc2)C12CSC1(CS2)C(=O)C(O)=C1c1ccccc1 (configuration not stated)
condition not met

Threshold query (pIC50 >= 4) on `O=C(NO)c1cc(O)c(O)c(O)c1`
condition met
